Numbers sourced from PubChem BioAssay (NCI).

Tested on: HCC-2998 colon
Experiment: NCI tumour cell line growth inhibition, 48 h
Readings of TGI for the listed molecules
endpoint.label: TGI

INSERT INTO measurements (molecule, test_result) VALUES
  ('CCOC(=O)C1=CC(C)(C(=O)OCC)Nc2c(nc(N)[nH]c2=O)N1 (centres undefined)', '> 10 µM'),
  ('CC(C)(C)OC(=O)NC1CCCC1=O (centres undefined)', '> 100 µM'),
  ('CCNc1ncnc2sc(SCc3ccccc3)nc12', '> 100 µM'),
  ('C[C@H]1[C@H](C)CC[C@]2(C(=O)OC3OC(CO)C(O)C(O)C3O)CC[C@]3(C)C(=CC[C@@H]4[C@@]5(C)C[C@H]6OC(=O)c7cc(O)c(O)c(O)c7-c7c(cc(O)c(O)c7O)C(=O)O[C@@H]6C(CO)(CO)[C@@H]5CC[C@]43C)[C@H]12 (some centres undefined)', '> 100 µM'),
  ('CSc1nc2c(ncn2C2OC(CO)C(O)C(O)C2O)c(=O)[nH]1 (centres undefined)', '> 100 µM'),
  ('CCOP(=O)(OCC)OC1CC(n2cc(C)c(=O)n(C)c2=O)OC1CO[Si](C)(C)C(C)(C)C (centres undefined)', '> 100 µM'),
  ('COc1ccc(NC(C)c2ccncc2)cc1 (centres undefined)', '> 100 µM'),
  ('C=C1C(=O)C23C(O)C1CC[C@H]2C12CCCC(C)(COC(C)=O)[C@H]1[C@H](O)[C@]3(O)OC2 (some centres undefined)', '3.32 µM'),
  ('CCOC(=O)C(NC(=O)Nc1ccc(Cl)cc1)(OC)C(F)(F)F (centres undefined)', '32.7 µM');
